# System: M. pachydermatis DSMZ 6172
# Construct: DSMZ 6172 (CDC 16334)
# assay_notes: microbe, parasite or virus in culture
# Set-up: broth microdilution MIC, M. pachydermatis and Candida, 35 °C
# study_conditions: Malassezia pachydermatis, DSMZ6172
Below: a set of entries, each annotated with reported MIC.
Answer format: numeric, µg/mL implied, no suffix.

Request: Query: MIC; subject: NS(=O)(=O)c1ccc(CCNC(=[Se])Nc2ccccc2F)cc1 [5b]
Result: 0.25

Request: Query: MIC; subject: O=C(NC(=[Se])Nc1ccc(S(=O)(=O)Nc2nccs2)cc1)c1ccc(Cl)cc1 [10g]
Result: 1.3

Request: Query: MIC; subject: NS(=O)(=O)c1ccc(NC(=[Se])Nc2ccccc2)cc1 [3a]
Result: 0.5

Request: Query: MIC; subject: NS(=O)(=O)c1ccc(CCNC(=[Se])NC(=O)c2ccc(F)cc2)cc1 [9d]
Result: 1

Request: Query: MIC; subject: NS(=O)(=O)c1ccc(NC(=[Se])Nc2ccccc2Cl)cc1 [3e]
Result: 1

Request: Query: MIC; subject: NS(=O)(=O)c1ccc(CCNC(=[Se])Nc2ccccc2Cl)cc1 [5e]
Result: 0.5

Request: Query: MIC; subject: O=C(NC(=[Se])Nc1ccc(S(=O)(=O)Nc2nccs2)cc1)c1ccc(F)cc1 [10e]
Result: 1

Request: Query: MIC; subject: NS(=O)(=O)c1cccc(NC(=[Se])Nc2ccccc2)c1 [4a]
Result: 4

Request: Query: MIC; subject: CCCCCCCc1ccc(C(=O)NC(=[Se])NCCc2ccc(S(N)(=O)=O)cc2)cc1 [9b]
Result: 1.7

Request: Query: MIC; subject: CC(=O)N1CCN(c2ccc(OC[C@@H]3CO[C@@](Cn4ccnc4)(c4ccc(Cl)cc4Cl)O3)cc2)CC1 (racemic) [Ketoconazole]
Result: 0.03

Request: Query: MIC; subject: NS(=O)(=O)c1ccc(CCNC(=[Se])NC(=O)c2ccc(I)cc2)cc1 [9e]
Result: 1

* * *

Below: a set of entries, each annotated with reported Ki.
# tgt: MpaCA (Malassezia pachydermatis, UniProt A0A0M8MPA4)
# Sequence (A0A0M8MPA4 1-242): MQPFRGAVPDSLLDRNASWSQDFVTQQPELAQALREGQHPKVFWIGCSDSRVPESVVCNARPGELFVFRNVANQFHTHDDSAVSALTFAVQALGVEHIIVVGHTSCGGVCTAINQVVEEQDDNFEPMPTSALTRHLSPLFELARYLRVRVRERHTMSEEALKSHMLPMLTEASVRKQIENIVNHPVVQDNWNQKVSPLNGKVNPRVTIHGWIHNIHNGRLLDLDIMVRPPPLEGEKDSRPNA
I'd appreciate it if you included the unit after the number.

Some compounds with recorded Ki:
NS(=O)(=O)c1ccc(O)c(NC(=[Se])NC(=O)c2cc(Br)cc(OC(F)(F)F)c2)c1 [11i]	12.7 µM
CCCCCCCc1ccc(C(=O)NC(=[Se])Nc2cc(S(N)(=O)=O)ccc2O)cc1 [11b]	78 µM
NS(=O)(=O)c1ccc(CCNC(=[Se])Nc2ccccc2)cc1	0.793 µM

Request: Lab note: need Ki with MpaCA (Malassezia pachydermatis, UniProt A0A0M8MPA4) for entry NS(=O)(=O)c1ccc(NC(=[Se])NC(=O)c2ccc(I)cc2)cc1 , please look it up.
Result: 76.1 µM

Request: Lab note: need Ki with MpaCA (Malassezia pachydermatis, UniProt A0A0M8MPA4) for entry CC(=O)Oc1ccccc1C(=O)NC(=[Se])Nc1cc(S(N)(=O)=O)ccc1O [11e] , please look it up.
Result: 33.8 µM

Request: Lab note: need Ki with MpaCA (Malassezia pachydermatis, UniProt A0A0M8MPA4) for entry NS(=O)(=O)c1ccc(C[Se]c2ccc(NC(=[Se])NC(=O)c3cc(Br)cc(OC(F)(F)F)c3)cc2)cc1 , please look it up.
Result: 71.6 µM

Request: Lab note: need Ki with MpaCA (Malassezia pachydermatis, UniProt A0A0M8MPA4) for entry NS(=O)(=O)c1cccc(NC(=[Se])NC(=O)c2ccc(F)cc2)c1 , please look it up.
Result: 79.5 µM

Request: Lab note: need Ki with MpaCA (Malassezia pachydermatis, UniProt A0A0M8MPA4) for entry NS(=O)(=O)c1ccc(CCNC(=[Se])NC(=O)c2ccc(F)cc2)cc1 , please look it up.
Result: 75 µM

Request: Lab note: need Ki with MpaCA (Malassezia pachydermatis, UniProt A0A0M8MPA4) for entry NS(=O)(=O)c1ccc(CCNC(=[Se])Nc2ccccc2Cl)cc1 , please look it up.
Result: 0.518 µM

* * *

# Tested on: ATCC M. furfur 14521
# Construct: ATCC 14521
# assay_notes: microbe, parasite or virus in culture
# study_conditions: Malassezia furfur
Below: a set of entries, each annotated with reported MIC.
Answer format: numeric, µg/mL implied, no suffix.

NS(=O)(=O)c1ccc(NC(=[Se])NC(=O)c2ccccc2)cc1 [7a]	0.85
NS(=O)(=O)c1ccc(CCNC(=[Se])Nc2ccc3ccccc3c2)cc1 [5h]	1.7
NS(=O)(=O)c1ccc(NC(=[Se])NC(=O)c2ccc(/N=N/c3ccccc3)cc2)cc1 [7j]	21.3

Let us move to another entry and its MIC.
Request: Lab note: need MIC with ATCC M. furfur 14521 for entry Fc1ccccc1NC(=S)Nc1ccccc1 [14d] , please look it up.
Result: 128

* * *

# Test system: ATCC M. furfur 14521
# Construct: ATCC 14521
# assay_notes: microbe, parasite or virus in culture
# study_conditions: Malassezia furfur
Field: label. Allowed values: True (MIC < 5 µg/mL) or False (MIC >= 5 µg/mL).

Answered cases to consult:
CCCCCCCc1ccc(C(=O)NC(=[Se])NCCc2ccc(S(N)(=O)=O)cc2)cc1	True
NS(=O)(=O)c1ccc(NC(=O)Nc2ccccc2F)cc1 [14a]	False
O=C(NC(=[Se])Nc1ccc(S(=O)(=O)Nc2nccs2)cc1)c1ccc(F)cc1 [10e]	True
NS(=O)(=O)c1ccc(CCNC(=[Se])Nc2ccccc2F)cc1	True
NS(=O)(=O)c1cccc(NC(=[Se])NC(=O)c2ccc(Cl)cc2)c1	False
NS(=O)(=O)c1ccc(NC(=[Se])NC(=O)c2ccc(Br)cc2F)cc1	True
NS(=O)(=O)c1ccc(O)c(NC(=[Se])NC(=O)c2ccccc2)c1 [11a]	True
NS(=O)(=O)c1ccc(CCNC(=[Se])NC(=O)c2ccc(F)cc2)cc1	True

Now consider the entry below.
Request: # strict comparison: is reported MIC < 5 µg/mL? input = NS(=O)(=O)c1ccc(NC(=[Se])NC(=O)c2ccc(F)cc2)cc1
Result: False

* * *

# System: M. pachydermatis DSMZ 6172
# Construct: DSMZ 6172 (CDC 16334)
# assay_notes: microbe, parasite or virus in culture
# Set-up: broth microdilution MIC, M. pachydermatis and Candida, 35 °C
# study_conditions: Malassezia pachydermatis, DSMZ6172
experimental_readout: MIC (µg/mL)
Answer format: numeric, µg/mL implied, no suffix.

Some molecules with recorded MIC:
NS(=O)(=O)c1ccc(O)c(NC(=[Se])NC(=O)c2ccccc2)c1 [11a]	1
O=C(NC(=[Se])Nc1ccc(S(=O)(=O)Nc2nccs2)cc1)c1ccc(I)cc1 [10f]	2

Let us move to another entry and its MIC.
Request: Query: MIC; subject: NS(=O)(=O)c1ccc(CCNC(=[Se])NC(=O)c2ccccc2)cc1 [9a]
Result: 1

* * *

Below: a set of entries, each annotated with reported Ki.
# tgt: MgCA (Malassezia globosa)
# Construct: gene MGL_1814
# Sequence (A8Q1N3 1-241): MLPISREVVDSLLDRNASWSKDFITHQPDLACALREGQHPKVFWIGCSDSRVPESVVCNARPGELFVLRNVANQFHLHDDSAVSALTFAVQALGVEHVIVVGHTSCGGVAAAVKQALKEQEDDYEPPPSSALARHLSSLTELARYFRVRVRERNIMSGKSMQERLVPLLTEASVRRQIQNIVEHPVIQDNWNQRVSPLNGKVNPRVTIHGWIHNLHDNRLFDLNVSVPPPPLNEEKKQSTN
# assay_notes: biochemical
# Set-up: stopped-flow CO2 hydration assay, phenol red absorbance at 557 nm, 15 min preincubation, Cheng-Prusoff KI
# Method: Enzyme concentrations ranged between 5 and 12 nM. […] The presence of the sulfonamide moiety (i.e., either primary/secondary) within our scaffolds prompted us to investigate whether the compounds listed in this study were endowed with modulation features against the enzymatic metalloenzyme carbonic anhydrases (CAs, EC 4.2.1.1) expressed in Malassezia spp. of interest such as M. pachydermatis (MpaCA), M. globosa (MgCA), and M. restricta (MreCA). […]

Some compounds with recorded Ki:
O=C(NC(=[Se])Nc1ccccc1)c1cc(Br)cc(OC(F)(F)F)c1 [16b]	> 10 µM
NS(=O)(=O)c1ccc(NC(=S)Nc2ccccc2F)cc1 [14b]	5.49 µM
O=C(NC(=[Se])Nc1c(F)c(F)cc(F)c1F)c1ccccc1 [16d]	> 10 µM
NS(=O)(=O)c1ccc(C[Se]c2ccc(NC(=[Se])NC(=O)c3cc(Br)cc(OC(F)(F)F)c3)cc2)cc1	1.76 µM
O=C(NC(=[Se])Nc1ccccc1F)c1ccccc1 [16c]	> 10 µM

Request: Lab note: need Ki with MgCA (Malassezia globosa) for entry O=C(Nc1ccccc1)Nc1ccccc1F [14c] , please look it up.
Result: > 10 µM
